molecular target: UniProtKB P06239; assay: Lck kinase activity, TR-FRET assay; assay type: biochemical; details: read-out: LCK (IC50)
pIC50: −log10 of the molar value.
Please go through the items and note down their pIC50.

Examples from the recorded data:
{"columns": ["CHEMICAL_STRING", "ASSAY_READOUT", "RESULT"],
 "data": [
  ["C=CC(=O)N1CCC[C@@H](Nc2n[nH]c3nccc(Oc4ccc(-c5nc6ccccc6s5)cc4)c23)C1", "pIC50", "6.00 to 7.00"],
  ["CCNC(=O)N1CCC[C@@H](Nc2n[nH]c3nccc(Oc4ccc(C(=O)Nc5ccccn5)cc4)c23)C1", "pIC50", "< 5.00"],
  ["CN(C)C/C=C/C(=O)N1CC[C@@H](Nc2n[nH]c3nccc(Oc4ccc(Oc5ccccc5)cc4)c23)C1", "pIC50", "> 7.00"],
  ["N#C/C(=C\\c1ccccc1)C(=O)N1CC[C@@H](Nc2n[nH]c3nccc(Oc4ccc(Oc5ccccc5)cc4)c23)C1", "pIC50", "6.00 to 7.00"],
  ["CN(C/C=C/C(=O)N1CC[C@@H](Nc2n[nH]c3nccc(Oc4ccc(C(=O)Nc5cc(C#N)ccn5)cc4)c23)C1)C1CC1", "pIC50", "5.00 to 6.00"]
]}

Here is the next item to consider.
**Q:** Using the record for COc1ccc(C(=O)N2CCC[C@@H](Nc3n[nH]c4nccc(Oc5ccc(C(=O)Nc6cc(C)ccn6)cc5)c34)C2)cc1 , report its pIC50.
**A:** 5.00 to 6.00

----------
I'd be grateful if you could share measured pIC50 for these entries.
target: Btk (Homo sapiens); test: Btk kinase activity, TR-FRET assay; format: biochemical; settings: read-out: Btk (IC50)
pIC50: −log10 of the molar value.

Would you please look over these solved cases?
{"columns": ["CHEMICAL_STRING", "TESTED_SYSTEM", "pIC50"],
 "data": [
  ["CC1(C(=O)N2CCC[C@@H](Nc3n[nH]c4nccc(Oc5ccc(C(=O)Nc6ccccn6)cc5)c34)C2)COC1", "Btk (Homo sapiens)", "> 7.00"],
  ["O=C(Nc1ccccn1)c1ccc(Oc2ccnc3[nH]nc(N[C@@H]4CCCN(C(=O)C5CC5)C4)c23)cc1", "Btk (Homo sapiens)", "> 7.00"],
  ["C=CC(=O)N1CC[C@H](CNc2n[nH]c3nccc(Oc4ccc(Oc5ccccc5)cc4)c23)C1", "Btk (Homo sapiens)", "> 7.00"]
]}

**Q:** Provide value of pIC50 for this record tested with Btk (Homo sapiens): Cc1cc(NC(=O)c2cccc(Nc3ccnc4[nH]nc(N[C@@H]5CCCNC5)c34)c2)ccc1C(C)C
**A:** 6.00 to 7.00

----------
target: Lck (Homo sapiens); experiment: Lck kinase activity, TR-FRET assay; type: biochemical; conditions: read-out: LCK (IC50)
Sequence (P06239 whole entry, species assumed): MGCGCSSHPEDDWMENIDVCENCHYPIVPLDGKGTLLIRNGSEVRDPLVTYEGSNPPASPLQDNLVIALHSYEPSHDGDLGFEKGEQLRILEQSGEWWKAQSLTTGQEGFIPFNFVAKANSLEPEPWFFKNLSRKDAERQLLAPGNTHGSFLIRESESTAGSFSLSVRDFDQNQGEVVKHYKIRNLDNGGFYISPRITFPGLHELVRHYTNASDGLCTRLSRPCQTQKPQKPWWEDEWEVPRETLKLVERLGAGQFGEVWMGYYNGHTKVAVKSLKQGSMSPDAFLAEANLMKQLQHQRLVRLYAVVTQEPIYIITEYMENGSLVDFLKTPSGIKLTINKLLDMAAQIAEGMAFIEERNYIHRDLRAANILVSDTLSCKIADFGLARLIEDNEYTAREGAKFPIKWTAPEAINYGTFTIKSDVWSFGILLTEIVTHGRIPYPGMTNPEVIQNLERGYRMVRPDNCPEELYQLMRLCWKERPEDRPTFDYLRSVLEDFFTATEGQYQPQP
pIC50: −log10 of the molar value.
ASSAY_READOUT: pIC50

{"columns": ["MOLECULE", "RESULT"],
 "data": [
  ["NC(=O)c1cc(Nc2n[nH]c3nccc(Oc4ccc(Oc5ccccc5)cc4)c23)ccn1", "> 7.00"]
]}

I'm hoping you can list pIC50 for every molecule here, please.
1. Cc1cnc(NC(=O)c2ccc(Oc3ccnc4[nH]nc(N[C@@H]5CCN(C(=O)C6CCN(C)CC6)C5)c34)cc2)s1
2. C=CC(=O)N1CCC[C@@H](Nc2n[nH]c3nccc(Oc4ccc(C(=O)Nc5nc6ccccc6s5)cc4)c23)C1
3. CN(C)C/C=C/C(=O)N1CCC[C@@H](Nc2n[nH]c3nccc(Oc4cccc(Oc5ccccc5)c4)c23)C1
4. Cc1ccnc(NC(=O)c2ccc(Oc3ccnc4[nH]nc(N[C@@H]5CCCN(C(=O)C6CC6)C5)c34)cc2)c1

**A:**
6.00 to 7.00
6.00 to 7.00
6.00 to 7.00
6.00 to 7.00

----------
target: Lck (Homo sapiens); test: Lck kinase activity, TR-FRET assay; assay type: biochemical; settings: read-out: LCK (IC50)
For each record, write down the corresponding IC50.

Below are worked cases with known answers.
{"columns": ["CHEMICAL_STRING", "IC50"],
 "data": [
  ["N#CCNC(=O)c1cc(Nc2n[nH]c3nccc(Oc4ccc(Oc5ccccc5)cc4)c23)ccn1", "< 0.1 µM"],
  ["O=C(Nc1cc(C(F)(F)F)ccn1)c1ccc(Oc2ccnc3[nH]nc(N[C@@H]4CCCN(C(=O)C5CC5)C4)c23)cc1", "0.1 to 1 µM"],
  ["CCC(=O)N1CC[C@@H](Nc2n[nH]c3nccc(Oc4ccc(C(=O)Nc5ncc(C)s5)cc4)c23)C1", "1 to 10 µM"]
]}

Dear colleague, could you send me IC50 for each of the items below? Thanks.
1. CCC(=O)N1CC[C@@H](Nc2n[nH]c3nccc(Oc4ccc(C(=O)Nc5nnc(C)[nH]5)cc4)c23)C1
2. CN(C/C=C/C(=O)Nc1ccccc1Nc1n[nH]c2nccc(Oc3ccc(Oc4ccccc4)cc3)c12)C1CC1
3. CCC(=O)N1CCC[C@@H](Nc2n[nH]c3nccc(Oc4ccc(-c5nc6ccccc6[nH]5)cc4)c23)C1
4. CN(C/C=C/C(=O)N1CC[C@@H](Nc2n[nH]c3nccc(Oc4ccc(OCc5cnn[nH]5)cc4)c23)C1)C1CC1

**A:**
1. > 10 µM
2. > 10 µM
3. > 10 µM
4. 0.1 to 1 µM

----------
target: Btk (Homo sapiens, UniProt Q06187); assay: Btk kinase activity, TR-FRET assay; type: biochemical; details: read-out: Btk (IC50)
Sequence (Q06187 whole entry): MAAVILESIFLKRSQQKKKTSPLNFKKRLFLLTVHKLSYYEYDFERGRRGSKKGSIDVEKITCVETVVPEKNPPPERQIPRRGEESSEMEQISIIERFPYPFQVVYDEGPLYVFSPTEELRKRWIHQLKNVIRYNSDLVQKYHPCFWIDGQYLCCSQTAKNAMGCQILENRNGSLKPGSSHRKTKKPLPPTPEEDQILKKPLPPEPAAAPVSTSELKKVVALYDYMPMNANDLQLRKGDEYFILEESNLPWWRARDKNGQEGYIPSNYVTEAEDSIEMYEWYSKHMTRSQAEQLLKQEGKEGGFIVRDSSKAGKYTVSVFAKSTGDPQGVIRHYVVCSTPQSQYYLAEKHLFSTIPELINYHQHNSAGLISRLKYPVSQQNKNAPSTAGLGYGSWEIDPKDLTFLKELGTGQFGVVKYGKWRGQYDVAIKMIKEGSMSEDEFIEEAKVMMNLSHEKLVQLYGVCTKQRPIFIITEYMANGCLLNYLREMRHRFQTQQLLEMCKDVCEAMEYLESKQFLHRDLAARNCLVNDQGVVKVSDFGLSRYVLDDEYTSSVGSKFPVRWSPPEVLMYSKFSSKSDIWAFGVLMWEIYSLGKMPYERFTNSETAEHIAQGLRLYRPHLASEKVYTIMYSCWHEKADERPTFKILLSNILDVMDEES
ASSAY_READOUT: IC50

{"columns": ["COMPOUND", "TESTED_SYSTEM", "IC50"],
 "data": [
  ["CN(C/C=C/C(=O)N1CC[C@@H](Nc2n[nH]c3nccc(Oc4ccc(Oc5ccccc5)cc4)c23)C1)C1CC1 [compound 10]", "Btk (Homo sapiens, UniProt Q06187)", "< 0.1 µM"],
  ["C=CC(=O)N1CC[C@H](Nc2n[nH]c3nccc(Oc4cccc(C(=O)Nc5ccc(C(C)C)c(C)c5)c4)c23)C1 [compound 126]", "Btk (Homo sapiens, UniProt Q06187)", "0.1 to 1 µM"],
  ["CC(=O)N1CCC[C@@H](Nc2n[nH]c3nccc(Nc4cccc(C(=O)Nc5ccc(C(C)C)c(C)c5)c4)c23)C1 [compound 131]", "Btk (Homo sapiens, UniProt Q06187)", "0.1 to 1 µM"],
  ["CCOC(=O)N1CCC[C@@H](Nc2n[nH]c3nccc(Oc4ccc(C(=O)Nc5cc(C)ccn5)cc4)c23)C1 [compound 108]", "Btk (Homo sapiens, UniProt Q06187)", "< 0.1 µM"],
  ["Cc1ccnc(NC(=O)c2ccc(Oc3ccnc4[nH]nc(N[C@@H]5CCCN(C(=O)c6ccccc6F)C5)c34)cc2)c1 [compound 248]", "Btk (Homo sapiens, UniProt Q06187)", "< 0.1 µM"]
]}

Field: IC50. Fill in for each record below.
1. Cc1cc(NC(=O)c2cccc(Nc3ccnc4[nH]nc(N[C@@H]5CCCN(C(=O)C6CC6)C5)c34)c2)ccc1C(C)C [compound 127]
2. C=CC(=O)N1CCC[C@@H](Nc2n[nH]c3nccc(Oc4ccc(C(=O)Nc5nnc(C)s5)cc4)c23)C1 [compound 187]
3. Cc1ccc(C(=O)N2CCC[C@@H](Nc3n[nH]c4nccc(Oc5ccc(C(=O)Nc6cc(C)ccn6)cc5)c34)C2)cc1 [compound 245]
4. CN(C)C/C=C/C(=O)N(C)[C@H]1CC[C@@H](Nc2n[nH]c3nccc(Oc4cccc(Oc5ccccc5)c4)c23)CC1 [compound 21]
5. CC#CC(=O)N1CC[C@@H](Nc2n[nH]c3nccc(Oc4ccc(C(=O)Nc5ncc(C)s5)cc4)c23)C1 [compound 181]

**A:**
1: 0.1 to 1 µM; 2: 0.1 to 1 µM; 3: < 0.1 µM; 4: < 0.1 µM; 5: < 0.1 µM

Dear colleague, could you please provide IC50 for the compounds listed below?
1. CNC(=O)/C(C#N)=C\c1cccc(Nc2n[nH]c3nccc(Oc4ccc(Oc5ccccc5)cc4)c23)c1 [compound 29]
2. Cc1ccnc(NC(=O)c2ccc(Oc3ccnc4[nH]nc(N[C@@H]5CCCN(C(=O)C6(C)CCC6)C5)c34)cc2)c1 [compound 88]
3. Cc1cccc(NC(=O)c2ccc(Oc3ccnc4[nH]nc(N[C@@H]5CCCN(C(=O)C6(C)COC6)C5)c34)cc2)n1 [compound 113]
4. C=CC(=O)N1CCC[C@@H](Nc2n[nH]c3nccc(Oc4ccc(C(=O)N(C)c5ncc(C)s5)cc4)c23)C1 [compound 211]
5. CN(C)C/C=C/C(=O)N1CC[C@@H](Nc2n[nH]c3ncnc(Oc4ccc(Oc5ccccc5)cc4)c23)C1 [compound 39]

**A:**
1. < 0.1 µM
2. < 0.1 µM
3. 0.1 to 1 µM
4. < 0.1 µM
5. < 0.1 µM
